The entries below pair compounds with IC50 values for bovine cerebral TPK1 (Bos taurus), as found in several publications.
property: IC50 (nM)

Below are worked cases with known answers.
>  <compound>
COc1cc(F)cc(F)c1[C@H]1CN(c2nc(-c3ccncn3)cc(=O)n2C)CCO1

>  <targetDesc>
bovine cerebral TPK1 (Bos taurus)

>  <unitOfMeasure>
nM

>  <readoutNumber>
0.24

$$$$
>  <compound>
Cn1c(N2CCOC(c3cccc(S(C)(=O)=O)c3)C2)nc(-c2ccncc2)cc1=O (centres unmarked)

>  <targetDesc>
bovine cerebral TPK1 (Bos taurus)

>  <unitOfMeasure>
nM

>  <readoutNumber>
52.9

$$$$
>  <compound>
CN(c1ccc([C@H]2CN(c3nc(-c4ccncn4)cc(=O)n3C)CCO2)cc1)[C@@H]1CCOC1

>  <targetDesc>
bovine cerebral TPK1 (Bos taurus)

>  <unitOfMeasure>
nM

>  <readoutNumber>
6.1

$$$$
>  <compound>
O=c1cc(-c2ccncc2)nc(N2CCOCC2)[nH]1

>  <targetDesc>
bovine cerebral TPK1 (Bos taurus)

>  <unitOfMeasure>
nM

>  <readoutNumber>
4300

$$$$
>  <compound>
Cn1c(N2CCO[C@@H](c3ccc(N4CCC(N5CCCC5)CC4)cc3)C2)nc(-c2ccncc2F)cc1=O

>  <targetDesc>
bovine cerebral TPK1 (Bos taurus)

>  <unitOfMeasure>
nM

>  <readoutNumber>
1.7

$$$$

P: Cn1c(N2CCOC(c3ccc(F)cc3OCC3CC3)C2)nc(-c2ccncn2)cc1=O (centres unmarked)
Q: O=c1cc(-c2ccncc2)nc(Nc2ccccc2)[nH]1
Of P and Q , whose reported IC50 is the larger number? // output: label of the selected item
Q

====

pIC50: −log10 of the molar value.
The entries below pair compounds with pIC50 values for bovine cerebral TPK1 (Bos taurus), as found in several publications.
property: pIC50

Below are worked cases with known answers.
>  <compound>
COc1ccc(-c2cccc(CN3CCCC3)c2)cc1C1CN(c2nc(-c3ccncn3)cc(=O)n2C)CCO1 (stereo not drawn)

>  <pIC50>
9.24

$$$$
>  <compound>
COc1ccc(C2=CCCN(c3nc(-c4ccncc4)cc(=O)n3C)C2)cc1

>  <pIC50>
8.06

$$$$
>  <compound>
Cn1c(N2CCC=C(c3ccccc3)C2)nc(-c2ccncn2)cc1=O

>  <pIC50>
8.19

$$$$
>  <compound>
Cn1c(N2CCOC(c3ccc(F)cc3OCc3ccccc3)C2)nc(-c2ccncn2)cc1=O (stereo not drawn)

>  <pIC50>
7.57

$$$$
>  <compound>
O=c1cc(-c2ccncc2)nc(Cc2ccccc2Cl)[nH]1

>  <pIC50>
5.89

$$$$

1: O=c1cc(-c2ccncc2)nc(-c2ccccc2)[nH]1
2: Cn1c(N2CCO[C@H]3CCCC[C@@H]32)nc(-c2ccncn2)cc1=O (racemic)
3: COc1cccc(OC)c1C1=CCCN(c2nc(-c3ccncc3)cc(=O)n2C)C1
4: COc1ccc(-c2cccnc2)cc1C1CN(c2nc(-c3ccncc3)cc(=O)n2C)CCO1 (stereo not drawn)
5: Cn1c(N2CCCC(C(=O)c3ccccc3)C2)nc(-c2ccncc2)cc1=O (stereo not drawn)
Hey, quick one: sort these by pIC50, largest value first please. Reply format: the labels, ordered as requested.
4, 5, 2, 3, 1

====

The entries below pair compounds with pIC50 values for bovine cerebral TPK1 (Bos taurus, UniProt A0A3Q1MT31), as found in several publications.
pIC50: −log10 of the molar value.
property: pIC50

>  <compound>
Cn1c(N2CCC=C(c3ccc(F)cc3)C2)nc(-c2ccncc2)cc1=O

>  <pIC50>
7.89

$$$$

A: Cn1c(N2CCOC(c3noc4ccccc34)C2)nc(-c2ccncn2)cc1=O (stereo not shown)
B: COc1cc(F)cc(OC)c1[C@@H]1CN(c2nc(-c3ccncn3)cc(=O)n2C)CCO1
Of A and B , whose reported pIC50 is the larger number? // output: label of the selected item
B

P: COc1cc(Cl)ccc1[C@H]1CN(c2nc(-c3ccncc3Cl)cc(=O)n2C)CCO1
Q: Cn1c(N2CCOC(c3ccc(N4CCCC4)cc3)C2)nc(-c2ccncn2)cc1=O (stereo not shown)
Of P and Q , whose reported pIC50 is the larger number? // output: label of the selected item
Q

====

The entries below pair compounds with IC50 values for bovine cerebral TPK1 (Bos taurus, UniProt A0A3Q1MT31), as found in several publications.
property: IC50 (nM)

>  <compound>
Cn1c(N2CCC(C(=O)N3CCc4ccccc43)CC2)nc(-c2ccncc2)cc1=O

>  <IC50 / nM>
8.1

$$$$
>  <compound>
COc1cc(F)cc(F)c1C1CN(c2nc(-c3ccncn3)cc(=O)n2C)CCO1 (stereo not drawn)

>  <IC50 / nM>
0.56

$$$$
>  <compound>
Cn1c(N2CCO[C@@H](c3ccc(C(=O)N4CCOCC4)cc3)C2)nc(-c2ccncc2F)cc1=O

>  <IC50 / nM>
7.4

$$$$

I: CC(C)Cc1nc(-c2ccncc2)cc(=O)[nH]1
II: Cn1c(N2CCOC(C(=O)c3ccccc3)C2)nc(-c2ccncc2)cc1=O (stereo not drawn)
III: Cn1c(N2CCC(Nc3cccc(C(F)(F)F)c3)CC2)nc(-c2ccncc2F)cc1=O
IV: Cc1ccccc1Cc1nc(-c2ccncc2)cc(=O)[nH]1
Hey, quick one: sort these by IC50, largest value first please. Reply format: the labels, ordered as requested.
I, IV, III, II

1: Cn1c(N2CCC=C(c3ccc(C(=O)N4CCCC4)cc3)C2)nc(-c2ccncn2)cc1=O
2: Cn1c(NCC(=O)c2ccccc2F)nc(-c2ccncc2)cc1=O
3: O=c1cc(-c2ccncc2)nc(NCC2CCCCC2)[nH]1
4: COc1ccc(C(=O)C2CCN(c3nc(-c4ccncc4)cc(=O)n3C)CC2)cc1
Your job: order these 4 records by IC50, ascending. Reply format: the labels, ordered as requested.
1, 4, 2, 3
(1: 6.8 nM, 4: 18 nM, 2: 27 nM, 3: 1400 nM)

1: Cn1c(N2CCO[C@H](c3ccc(F)cc3)C2)nc(-c2ccncn2)cc1=O
2: C[C@H](N)c1nc(-c2ccc(N3CCN(c4nc(-c5ccncc5)cc(=O)n4C)[C@H](C)C3)cc2)no1
I'm curious whether 1 or 2 has the smaller IC50 number. Which is it? // output: label of the selected item
2

====

pIC50: −log10 of the molar value.
The entries below pair molecules with pIC50 values for bovine cerebral TPK1 (Bos taurus), as found in several publications.
property: pIC50

Below are worked cases with known answers.
>  <molecule>
COc1ccc(-c2ccccc2F)cc1C1CN(c2nc(-c3ccncn3)cc(=O)n2C)CCO1 (centres unmarked)

>  <readoutNumber>
8.85

$$$$
>  <molecule>
COc1cc(C#N)ccc1C1CN(c2nc(-c3ccncn3)cc(=O)n2C)CCO1 (centres unmarked)

>  <readoutNumber>
9.15

$$$$
>  <molecule>
O=c1cc(-c2ccncc2)nc(C2CCCCC2)[nH]1

>  <readoutNumber>
5.55

$$$$

P: Cc1nc(-c2ccncc2)cc(=O)[nH]1
Q: Cn1c(N2CCC(C(=O)c3ccc(Cl)cc3)CC2)nc(-c2ccncc2)cc1=O
Of P and Q , whose reported pIC50 is the larger number? // output: label of the selected item
Q

====

The entries below pair compounds with IC50 values for bovine cerebral TPK1 (Bos taurus), as found in several publications.
property: IC50 (nM)

P: CC(C)Oc1ccc(C2CN(c3nc(-c4ccncc4)cc(=O)n3C)CCO2)cc1 (stereo not shown)
Q: CN(Cc1ccccc1)c1nc(-c2ccncc2)cc(=O)[nH]1
R: Cn1c(N2CCC(C(=O)c3ccc(Cl)cc3)CC2)nc(-c2ccncn2)cc1=O
S: Cn1c(N2CCO[C@@H](c3ccc(NC(=O)c4ccccc4)cc3)C2)nc(-c2ccncc2)cc1=O
Put the items in sequence by IC50, from largest down. Reply format: the labels, ordered as requested.
Q, P, S, R
(Q: 2800 nM, P: 63 nM, S: 5.1 nM, R: 1.1 nM)

====

pIC50: −log10 of the molar value.
The entries below pair compounds with pIC50 values for bovine cerebral TPK1 (Bos taurus, UniProt A0A3Q1MT31), as found in several publications.
property: pIC50

Below are worked cases with known answers.
>  <compound>
COc1cccc(OC)c1[C@H]1CN(c2nc(-c3ccncn3)cc(=O)n2C)CCO1

>  <targetDesc>
bovine cerebral TPK1 (Bos taurus, UniProt A0A3Q1MT31)

>  <property>
pIC50

>  <readoutNumber>
9.64

$$$$
>  <compound>
Cn1c(N2CCC(C(=O)c3ccc(F)c(F)c3)CC2)nc(-c2ccncc2)cc1=O

>  <targetDesc>
bovine cerebral TPK1 (Bos taurus, UniProt A0A3Q1MT31)

>  <property>
pIC50

>  <readoutNumber>
7.72

$$$$
>  <compound>
COc1cc(N2CCCC2)ccc1C1CN(c2nc(-c3ccncn3)cc(=O)n2C)CCO1 (stereo not drawn)

>  <targetDesc>
bovine cerebral TPK1 (Bos taurus, UniProt A0A3Q1MT31)

>  <property>
pIC50

>  <readoutNumber>
9.11

$$$$
>  <compound>
Cn1c(N2CCO[C@@H](c3noc4ccccc34)C2)nc(-c2ccncn2)cc1=O

>  <targetDesc>
bovine cerebral TPK1 (Bos taurus, UniProt A0A3Q1MT31)

>  <property>
pIC50

>  <readoutNumber>
9.00

$$$$

I: CCn1c(N2CCOC(c3c(OC)cccc3OC)C2)nc(-c2ccncc2)cc1=O (stereo not drawn)
II: Cn1c(N2CCN3CCc4ccccc4C3C2)nc(-c2ccncc2)cc1=O (stereo not drawn)
III: CC(C)Oc1cc(F)ccc1C1CN(c2nc(-c3ccncn3)cc(=O)n2C)CCO1 (stereo not drawn)
IV: Cn1c(N2CCC(C(=O)c3ccccc3F)CC2)nc(-c2ccncc2)cc1=O
V: O=c1cc(-c2ccncc2F)nc(N2CCO[C@@H](c3ccc(F)cc3)C2)[nH]1
Hey, quick one: sort these by pIC50, largest value first please. Reply format: the labels, ordered as requested.
I, III, II, IV, V
(I: 8.92, III: 8.34, II: 7.85, IV: 7.64, V: 7.22)
